Hello, the source for this data is patent US20180057604A1, in case you need it.

- SUBJECT_OF_TEST: BACE1 in primary mouse cortical neurons (mouse, UniProt P56818 46-501)
- Sequence (P56818 46-501): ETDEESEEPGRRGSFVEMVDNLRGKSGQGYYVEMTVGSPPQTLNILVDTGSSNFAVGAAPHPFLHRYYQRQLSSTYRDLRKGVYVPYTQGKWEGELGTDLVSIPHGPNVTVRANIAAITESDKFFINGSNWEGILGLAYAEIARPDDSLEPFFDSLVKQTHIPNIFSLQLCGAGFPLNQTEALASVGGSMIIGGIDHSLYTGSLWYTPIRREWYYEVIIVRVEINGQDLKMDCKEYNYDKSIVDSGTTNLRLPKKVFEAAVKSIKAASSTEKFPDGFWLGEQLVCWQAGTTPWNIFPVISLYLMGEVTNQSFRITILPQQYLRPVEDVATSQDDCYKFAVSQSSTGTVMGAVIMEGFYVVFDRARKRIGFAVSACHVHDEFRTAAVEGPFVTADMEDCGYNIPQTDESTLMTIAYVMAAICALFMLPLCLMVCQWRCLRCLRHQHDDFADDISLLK
- TEST_SUMMARY: cell-based or functional assay
PROPERTY_LABEL: maximal % inhibition of Abeta x-40 (%)
Quick note: give the figure in %, leave out the unit.

Recorded result, 5931 (antibody, V domains shown, anti-BACE1 IgG) VH: QLQLQESGPGLVKPSETLSLTCTVSGGSISWSSYYWSWIRQPPGKGLEWIGSIYRSGRTYYNPSLKGRVTISVDTSKNQFSLKLSSVTAADTAVYYCARVGHGINYFDLWGRGTLVTVSS VL: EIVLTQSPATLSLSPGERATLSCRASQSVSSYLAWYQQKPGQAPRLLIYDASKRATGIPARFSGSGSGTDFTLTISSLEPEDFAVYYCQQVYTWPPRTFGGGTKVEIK , maximal % inhibition of Abeta x-40: 69

Recorded result, 5932 (antibody, V domains shown, anti-BACE1 IgG) VH: QLQLQESGPGLVKPSETLSLTCTVSGGSISRGSYYWGWIRQPPGKGLEWIGMIYYSGSTWYNPSLKSRVTISVDTSKNQFSLKLSSVTAADTAVYYCARVGHGISYFDLWGRGTLVTVSS VL: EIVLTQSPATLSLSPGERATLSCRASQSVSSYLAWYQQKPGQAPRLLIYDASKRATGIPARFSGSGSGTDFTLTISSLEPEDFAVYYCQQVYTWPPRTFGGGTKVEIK , maximal % inhibition of Abeta x-40: 57

Recorded result, 5986 (antibody, V domains shown, anti-BACE1 IgG) VH: QLQLQESGPGLVKPSETLSLTCTVSGGSISSSSYYWGWIRQPPGKGLEWIGQIYYSGSTFYNPSLKSRVTISVDTSKNQFSLKLSSVTAADTAVYYCARLGHGYSYFDLWGRGTLVTVSS VL: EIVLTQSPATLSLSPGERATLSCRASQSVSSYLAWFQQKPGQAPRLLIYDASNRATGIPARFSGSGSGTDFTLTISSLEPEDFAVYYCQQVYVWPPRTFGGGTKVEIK , maximal % inhibition of Abeta x-40: 67

Recorded result, 6280 (antibody, V domains shown, anti-BACE1 IgG) VH: QLQLQESGPGLVKPSETLSLTCTVSGGSTSSSSYYWGWIRQPPGKGLEWIGSIYRSGSTYYNPSFKSRVTISVDTSKNQFSLKLSSVTAADTAVYYCARVGHGISYFDLWGRGTLVTVSS VL: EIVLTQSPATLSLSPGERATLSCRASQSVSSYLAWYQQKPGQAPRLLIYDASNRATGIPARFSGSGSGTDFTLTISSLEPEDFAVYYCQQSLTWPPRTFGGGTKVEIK , maximal % inhibition of Abeta x-40: 65

Recorded result, 5903 (antibody, V domains shown) VH: QLQLQESGPGLVKPSETLSLTCTVSGGSISSSSYYWGWIRQPPGKGLEWIGMIYYSGSTWYNPSLKSRVTISVDTSKNQFSLKLSSVTAADTAVYYCARVGHGISYFDLWGRGTLVTVSS VL: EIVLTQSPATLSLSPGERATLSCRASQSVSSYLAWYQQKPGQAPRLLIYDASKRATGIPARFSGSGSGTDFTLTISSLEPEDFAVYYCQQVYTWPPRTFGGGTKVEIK , maximal % inhibition of Abeta x-40: 72
